Values from ChEMBL document CHEMBL1130081

value-kind: pIC50
Please report pIC50 as the negative decimal logarithm of the molar concentration, giving only the number.

-- ask // map C[N+]1(CCC(=O)Nc2ccc3c(c2)C(=O)c2ccc(NC(=O)CC[N+]4(C)CCCCC4CO)cc2C3=O)CCCCC1CO (stereo unspecified) to recorded pIC50 (system: UniProt:O14746)
Sequence (O14746 whole entry): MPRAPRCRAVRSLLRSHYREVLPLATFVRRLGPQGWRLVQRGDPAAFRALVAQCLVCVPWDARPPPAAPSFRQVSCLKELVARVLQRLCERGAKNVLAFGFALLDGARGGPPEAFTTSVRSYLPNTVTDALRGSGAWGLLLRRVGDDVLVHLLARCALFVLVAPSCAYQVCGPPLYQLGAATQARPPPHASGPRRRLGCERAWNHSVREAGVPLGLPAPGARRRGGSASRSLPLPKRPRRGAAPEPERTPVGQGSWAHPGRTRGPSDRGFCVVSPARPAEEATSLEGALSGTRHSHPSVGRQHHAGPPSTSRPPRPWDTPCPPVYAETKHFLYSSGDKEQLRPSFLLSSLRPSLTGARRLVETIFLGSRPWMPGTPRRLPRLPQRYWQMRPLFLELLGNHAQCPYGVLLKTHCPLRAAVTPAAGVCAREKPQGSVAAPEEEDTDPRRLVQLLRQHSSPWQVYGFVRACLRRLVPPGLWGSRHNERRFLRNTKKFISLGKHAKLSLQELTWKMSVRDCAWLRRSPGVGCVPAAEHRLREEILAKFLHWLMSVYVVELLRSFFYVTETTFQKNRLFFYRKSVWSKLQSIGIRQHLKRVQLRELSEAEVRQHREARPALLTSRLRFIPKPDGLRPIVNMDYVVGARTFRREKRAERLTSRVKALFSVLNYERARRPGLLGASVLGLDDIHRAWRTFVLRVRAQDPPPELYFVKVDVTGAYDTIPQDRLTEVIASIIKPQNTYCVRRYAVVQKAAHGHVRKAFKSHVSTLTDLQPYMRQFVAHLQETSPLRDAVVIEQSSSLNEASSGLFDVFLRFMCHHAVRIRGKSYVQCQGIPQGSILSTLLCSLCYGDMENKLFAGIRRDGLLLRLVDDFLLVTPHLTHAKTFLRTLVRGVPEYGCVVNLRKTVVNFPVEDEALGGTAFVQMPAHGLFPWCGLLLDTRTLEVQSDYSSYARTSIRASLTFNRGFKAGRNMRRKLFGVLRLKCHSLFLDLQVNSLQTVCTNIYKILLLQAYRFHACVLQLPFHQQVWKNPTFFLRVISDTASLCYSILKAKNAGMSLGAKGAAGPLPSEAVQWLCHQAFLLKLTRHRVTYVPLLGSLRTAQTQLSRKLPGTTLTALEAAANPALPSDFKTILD
-- reply 4.64
